test system: α-isomaltosylglucosaccharide-forming enzyme from Arthrobacter globiformis A19; test: Action on saccharides (TLC before and after enzymatic reaction); format: biochemical; set-up: key: −: it showed no change; +: it showed a slight reduction of the color spot of the substrate and the formation of other reaction product; ++: it showed a high reduction of the color spot of the substrate and the formationof other reaction product; +++: it showed a substantial disappearance of the substrate spot and the formation of other reaction product; details: two units/g substrate, substrate 2% (w/v), 30° C., pH 8.4, 24 hours
recorded_metric: Enzyme action, A19 enzyme

molecule=OC[C@@H](O)[C@@H](O[C@H]1O[C@H](CO)[C@@H](O)[C@H](O)[C@H]1O)[C@H](O)[C@@H](O)CO data_value=−
molecule="OC[C@H]1O[C@H](OC[C@H]2O[C@H](OC[C@H]3OC(O)[C@H](O)[C@@H](O)[C@@H]3O)[C@H](O)[C@@H](O)[C@@H]2O)[C@H](O)[C@@H](O)[C@@H]1O (some centres unmarked)" data_value=−
molecule="OC[C@H]1O[C@@H](OC[C@H]2OC(O)[C@H](O)[C@@H](O)[C@@H]2O)[C@H](O)[C@@H](O)[C@@H]1O (some centres unmarked)" data_value=−
molecule="OC[C@H]1O[C@H](O[C@H]2C(O)O[C@H](CO)[C@@H](O)[C@@H]2O)[C@H](O)[C@@H](O)[C@@H]1O (some centres unmarked)" data_value=+
molecule="OC[C@H]1O[C@H](O[C@H]2[C@H](O)[C@@H](CO)OC(O)[C@@H]2O)[C@H](O)[C@@H](O)[C@@H]1O (some centres unmarked)" data_value=+

---

test system: α-isomaltosylglucosaccharide-forming enzyme from Bacillus globisporus C11; experiment: Action on saccharides (TLC before and after enzymatic reaction); format: biochemical; design: key: −: it showed no change; +: it showed a slight reduction of the color spot of the substrate and the formation of other reaction product; ++: it showed a high reduction of the color spot of the substrate and the formationof other reaction product; +++: it showed a substantial disappearance of the substrate spot and the formation of other reaction product; conditions: two units/g substrate, substrate 2% (w/v), 30° C., pH 6.0, 24 hours
recorded_metric: Enzyme action, C11 enzyme

compound="OC[C@H]1O[C@@H](O[C@H]2O[C@H](CO)[C@@H](O)[C@H](O)[C@H]2O)[C@H](O)[C@@H](O)[C@@H]1O [Neotrehalose, neotrehalose]" data_value=+
compound="O=C[C@H](O)[C@@H](O)[C@H](O[C@@H]1O[C@H](CO)[C@@H](O)[C@H](O)[C@H]1O)[C@H](O)CO [Cellobiose, cellobiose]" data_value=−
compound="OC[C@H]1O[C@H](OC[C@H]2OC(O)[C@H](O)[C@@H](O)[C@@H]2O)[C@H](O)[C@@H](O)[C@@H]1O (stereo partly drawn) [Isomaltose, isomaltose]" data_value=−
compound="OC[C@H]1O[C@H](OC[C@H]2O[C@H](OC[C@H]3OC(O)[C@H](O)[C@@H](O)[C@@H]3O)[C@H](O)[C@@H](O)[C@@H]2O)[C@H](O)[C@@H](O)[C@@H]1O (stereo partly drawn) [Isomaltotriose, isomaltotriose]" data_value=−
compound="OC[C@H]1O[C@H](O[C@H]2C(O)O[C@H](CO)[C@@H](O)[C@@H]2O)[C@H](O)[C@@H](O)[C@@H]1O (stereo partly drawn) [Kojibiose, kojibiose]" data_value=+
compound="OC[C@H]1O[C@H](O[C@H]2[C@H](O)[C@@H](O)[C@H](O)O[C@@H]2CO)[C@H](O)[C@@H](O)[C@@H]1O [Maltose, maltose]" data_value=+
